Molecular target: Rho-associated protein kinase 2 (Homo sapiens, UniProt O75116)
Sequence (O75116 whole entry): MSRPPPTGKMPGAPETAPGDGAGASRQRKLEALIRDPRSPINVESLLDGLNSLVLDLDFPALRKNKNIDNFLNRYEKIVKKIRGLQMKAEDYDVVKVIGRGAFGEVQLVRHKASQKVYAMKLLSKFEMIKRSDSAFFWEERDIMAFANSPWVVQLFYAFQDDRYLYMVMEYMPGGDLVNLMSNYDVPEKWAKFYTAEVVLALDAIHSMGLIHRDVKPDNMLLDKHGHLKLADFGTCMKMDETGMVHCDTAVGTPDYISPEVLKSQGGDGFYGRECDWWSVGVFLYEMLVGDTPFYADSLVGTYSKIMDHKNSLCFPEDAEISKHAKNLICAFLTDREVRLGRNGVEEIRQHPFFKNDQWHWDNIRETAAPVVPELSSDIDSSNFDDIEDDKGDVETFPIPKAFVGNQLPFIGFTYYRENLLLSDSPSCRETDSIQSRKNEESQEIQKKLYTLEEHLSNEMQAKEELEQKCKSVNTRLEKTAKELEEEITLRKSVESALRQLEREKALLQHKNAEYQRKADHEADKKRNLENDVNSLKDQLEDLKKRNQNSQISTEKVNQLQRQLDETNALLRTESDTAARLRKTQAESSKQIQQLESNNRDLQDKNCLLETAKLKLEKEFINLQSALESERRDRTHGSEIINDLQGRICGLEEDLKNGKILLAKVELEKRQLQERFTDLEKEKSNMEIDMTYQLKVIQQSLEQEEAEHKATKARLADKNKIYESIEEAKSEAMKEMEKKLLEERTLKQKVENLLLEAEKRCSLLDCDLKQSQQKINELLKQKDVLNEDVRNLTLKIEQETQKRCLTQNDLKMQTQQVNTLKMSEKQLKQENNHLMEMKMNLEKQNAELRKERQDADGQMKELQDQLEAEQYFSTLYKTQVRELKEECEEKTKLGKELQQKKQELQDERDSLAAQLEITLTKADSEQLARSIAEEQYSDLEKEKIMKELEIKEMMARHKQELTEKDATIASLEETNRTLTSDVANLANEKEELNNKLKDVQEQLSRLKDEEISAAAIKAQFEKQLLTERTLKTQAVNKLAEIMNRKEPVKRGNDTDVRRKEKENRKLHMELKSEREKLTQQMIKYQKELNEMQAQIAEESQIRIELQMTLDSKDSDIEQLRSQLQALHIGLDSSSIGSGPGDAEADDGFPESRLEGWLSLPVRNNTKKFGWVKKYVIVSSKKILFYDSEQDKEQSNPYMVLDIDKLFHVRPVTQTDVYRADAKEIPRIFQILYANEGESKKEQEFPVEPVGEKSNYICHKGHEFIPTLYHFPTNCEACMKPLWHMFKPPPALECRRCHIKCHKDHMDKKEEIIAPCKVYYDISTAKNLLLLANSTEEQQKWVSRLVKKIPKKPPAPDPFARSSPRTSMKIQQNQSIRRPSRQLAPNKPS
Mark label 1 only when IC50 stays strictly below 10 nM. Values equal to the cut-off are label 0.

I'd appreciate it if you could check whether "COC(=O)c1cccc(NC(=O)C2(CN(C)C)CCN(c3ncnc4[nH]cc(C#N)c34)CC2)c1" has IC50 smaller than 10 nM. label 1

I'd appreciate it if you could check whether "COC(=O)COc1cccc(NC(=O)C2(CN(C)C)CCN(c3ncnc4[nH]cc(C)c34)CC2)c1" has IC50 smaller than 10 nM. label 1

I'd appreciate it if you could check whether "Cc1[nH]c2ncnc(N3CCC(CN(C)C)(C(=O)Nc4cccc(OC(=O)N(C)C)c4)CC3)c2c1C" has IC50 smaller than 10 nM. label 0

I'd appreciate it if you could check whether "COC(=O)c1cccc(NC(=O)C2(N)CCN(c3ncnc4[nH]cc(C)c34)CC2)c1" has IC50 smaller than 10 nM. label 0

I'd appreciate it if you could check whether "COC(=O)c1cccc(NC(=O)C2(N)CCN(c3ccncn3)CC2)c1" has IC50 smaller than 10 nM. label 0

I'd appreciate it if you could check whether "CCCOC(=O)c1cccc(NC(=O)C2(CN(C)C)CCN(c3ncnc4[nH]cc(C)c34)CC2)c1" has IC50 smaller than 10 nM. label 0

I'd appreciate it if you could check whether "COC(=O)c1ccc(NC(=O)C2(CN(C)C)CCN(c3ncnc4[nH]cc(C)c34)CC2)cc1" has IC50 smaller than 10 nM. label 1

I'd appreciate it if you could check whether "COC(=O)c1cccc(NC(=O)C2(CN(C)C)CCN(c3ncnc4[nH]c(C)cc34)CC2)c1" has IC50 smaller than 10 nM. label 0

---

Kindly supply the reported IC50 values for the records listed here.
Target: cAMP-dependent protein kinase (PKA) (Homo sapiens, UniProt P22694+P17612+P22612)
Test: Inhibition of PKA (unknown origin) by radiometric assay
Format: protein assay

Which IC50 value is on record for "COC(=O)c1cccc(NC(=O)C2(CN(C)C)CCN(c3ncnc4[nH]ccc34)CC2)c1" ? 1.1 nM

Which IC50 value is on record for "COC(=O)c1cccc(NC(=O)C2(N)CCN(c3ccnc(N)n3)CC2)c1" ? > 1000 nM

Which IC50 value is on record for "COC(=O)c1cccc(NC(=O)C2(CN(C)C)CCN(c3ncnc4[nH]cc(C#N)c34)CC2)c1" ? < 1 nM

Which IC50 value is on record for "COC(=O)c1cccc(NC(=O)C2(N(C)C)CCN(c3ncnc4[nH]cc(C)c34)CC2)c1" ? 150 nM

Which IC50 value is on record for "Cc1c[nH]c2ncnc(N3CCC(CN(C)C)(C(=O)Nc4cccc(C(=O)OC(C)C)c4)CC3)c12" ? 22 nM

Which IC50 value is on record for "Cc1[nH]c2ncnc(N3CCC(CN(C)C)(C(=O)Nc4cccc(OC(=O)N(C)C)c4)CC3)c2c1C" ? > 1000 nM

Which IC50 value is on record for "COC(=O)c1cccc(NC(=O)C2(N)CCN(c3ccncn3)CC2)c1" ? > 1000 nM

Which IC50 value is on record for "COC(=O)c1cccc(NC(=O)C2(CN(C)C)CCN(c3ncnc4[nH]ncc34)CC2)c1" ? 5.1 nM

Which IC50 value is on record for "COC(=O)c1cccc(NC(=O)C2(CN(C)C)CCN(c3ncnc4[nH]cc(C)c34)CC2)c1" ? 24 nM

---

Target: cAMP-dependent protein kinase (PKA) (Homo sapiens, UniProt P22694+P17612+P22612)
Assay: Inhibition of PKA (unknown origin) by radiometric assay
Assay type: protein assay
VALUE_TYPE: IC50

Which IC50 value is on record for "COC(=O)COc1cccc(NC(=O)C2(CN(C)C)CCN(c3ncnc4[nH]cc(C)c34)CC2)c1" ? 5.4 nM

Which IC50 value is on record for "COC(=O)c1cccc(NC(=O)C2(CN(C)C)CCN(c3ccnc4[nH]ncc34)CC2)c1" ? 3.8 nM

Which IC50 value is on record for "COC(=O)c1cccc(NC(=O)C2(N)CCN(c3cc(NC(C)=O)ncn3)CC2)c1" ? > 1000 nM

Which IC50 value is on record for "COC(=O)c1cccc(NC(=O)C2(CN(C)C)CCN(c3ncnc4c3CC(=O)N4)CC2)c1" ? 1130 nM

Which IC50 value is on record for "COC(=O)c1cccc(NC(=O)C2(CN(C)C)CCN(c3ncnc4[nH]c(C)cc34)CC2)c1" ? 332 nM

---

Target: LIM domain kinase 2 (Homo sapiens)
Sequence (P53671 whole entry, the tested form may be a part): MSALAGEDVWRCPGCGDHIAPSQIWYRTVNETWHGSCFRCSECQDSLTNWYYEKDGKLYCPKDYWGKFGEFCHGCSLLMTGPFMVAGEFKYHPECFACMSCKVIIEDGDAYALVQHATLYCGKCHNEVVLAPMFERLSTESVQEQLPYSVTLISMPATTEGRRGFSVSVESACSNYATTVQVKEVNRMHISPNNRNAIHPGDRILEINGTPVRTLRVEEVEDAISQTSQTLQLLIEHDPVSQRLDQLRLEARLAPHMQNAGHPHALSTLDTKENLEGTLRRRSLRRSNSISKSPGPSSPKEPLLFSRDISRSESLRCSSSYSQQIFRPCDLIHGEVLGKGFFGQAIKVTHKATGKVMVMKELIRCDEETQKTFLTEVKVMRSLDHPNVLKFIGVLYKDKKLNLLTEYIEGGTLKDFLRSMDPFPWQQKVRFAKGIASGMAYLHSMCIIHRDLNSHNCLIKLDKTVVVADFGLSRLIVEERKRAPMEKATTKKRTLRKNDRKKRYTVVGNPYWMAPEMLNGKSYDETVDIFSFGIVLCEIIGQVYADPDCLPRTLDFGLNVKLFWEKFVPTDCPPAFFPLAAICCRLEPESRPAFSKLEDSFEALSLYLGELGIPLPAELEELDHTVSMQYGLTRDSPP
pIC50: −log10 of the molar value.
Label TRUE when pIC50 is at or above 8; anything below gets FALSE.

In plain terms: is recorded pIC50 at least 8 for "COC(=O)c1cccc(NC(=O)C2(N)CCN(c3cc(N)ncn3)CC2)c1" ? FALSE

In plain terms: is recorded pIC50 at least 8 for "COC(=O)c1cccc(NC(=O)C2(N)CCN(c3ccncn3)CC2)c1" ? FALSE

In plain terms: is recorded pIC50 at least 8 for "Cc1c[nH]c2ncnc(N3CCC(CN(C)C)(C(=O)Nc4cccc(OC(=O)N(C)C)c4)CC3)c12" ? TRUE

In plain terms: is recorded pIC50 at least 8 for "COC(=O)c1cccc(NC(=O)C2(CN(C)C)CCN(c3ncnc4[nH]cc(F)c34)CC2)c1" ? TRUE

In plain terms: is recorded pIC50 at least 8 for "COC(=O)Cc1cccc(NC(=O)C2(CN(C)C)CCN(c3ncnc4[nH]cc(C)c34)CC2)c1" ? TRUE

In plain terms: is recorded pIC50 at least 8 for CCC(C)OC(=O)c1cccc(NC(=O)C2(CN(C)C)CCN(c3ncnc4[nH]cc(C)c34)CC2)c1 (stereo not given) ? TRUE

In plain terms: is recorded pIC50 at least 8 for Cc1c[nH]c2ncnc(N3CCC(CN)(C(=O)Nc4cccc(OC(=O)N(C)C)c4)CC3)c12 [LX-7101] ? TRUE

In plain terms: is recorded pIC50 at least 8 for "CCCOC(=O)c1cccc(NC(=O)C2(CN(C)C)CCN(c3ncnc4[nH]cc(C)c34)CC2)c1" ? TRUE

In plain terms: is recorded pIC50 at least 8 for "Cc1[nH]c2ncnc(N3CCC(CN(C)C)(C(=O)Nc4cccc(OC(=O)N(C)C)c4)CC3)c2c1C" ? TRUE

In plain terms: is recorded pIC50 at least 8 for "COC(=O)COc1cccc(NC(=O)C2(CN(C)C)CCN(c3ncnc4[nH]cc(C)c34)CC2)c1" ? TRUE

In plain terms: is recorded pIC50 at least 8 for "Cc1c[nH]c2ncnc(N3CCC(CN(C)C)(C(=O)Nc4cccc(C(=O)OC(C)C)c4)CC3)c12" ? TRUE

In plain terms: is recorded pIC50 at least 8 for "COC(=O)c1cccc(NC(=O)C2(CN(C)C)CCN(c3ncnc4[nH]ncc34)CC2)c1" ? FALSE

---

Molecular target: cAMP-dependent protein kinase (PKA) (Homo sapiens, UniProt P22694+P17612+P22612)
Assay: Inhibition of PKA (unknown origin) by radiometric assay
Format: protein assay
VALUE_TYPE: IC50

Which IC50 value is on record for "COC(=O)c1cccc(NC(=O)C2(N)CCN(c3cc(N)ncn3)CC2)c1" ? > 1000 nM

Which IC50 value is on record for "Cc1c[nH]c2ncnc(N3CCC(CN)(C(=O)Nc4cccc(OC(=O)N(C)C)c4)CC3)c12" ? < 1 nM

Which IC50 value is on record for "COC(=O)c1cccc(NC(=O)C2(CN)CCN(c3ncnc4[nH]cc(C)c34)CC2)c1" ? < 1 nM

Which IC50 value is on record for "COC(=O)c1cccc(NC(=O)C2(CN(C)C)CCN(c3ncnc4[nH]c(C)c(C)c34)CC2)c1" ? > 1000 nM

Which IC50 value is on record for "COC(=O)c1cccc(NC(=O)C2(CN(C)C)CCN(c3ncnc4[nH]cc(F)c34)CC2)c1" ? < 1 nM

---

Kindly supply the reported IC50 values for the records listed here.

Please state recorded IC50 (tested on LIM domain kinase 2 (Homo sapiens, UniProt P53671)) of "COC(=O)c1cccc(NC(=O)C2(N)CCN(c3ncnc4[nH]ccc34)CC2)c1" 9.6 nM

Please state recorded IC50 (tested on LIM domain kinase 2 (Homo sapiens, UniProt P53671)) of "COC(=O)c1cccc(NC(=O)C2(N)CCN(c3ncnc4[nH]cc(C)c34)CC2)c1" 7.4 nM

Please state recorded IC50 (tested on LIM domain kinase 2 (Homo sapiens, UniProt P53671)) of "COC(=O)c1cccc(NC(=O)C2(CN(C)C)CCN(c3ncnc4[nH]ccc34)CC2)c1" 13 nM
